Numbers sourced from patent US9023793B2.

assay-protocol: clinical
protocol-conditions: human, in vivo, inhaled or intranasal, 250 ug
*1 amine or outer side, *2 acyl side, *3 side chain or, on linkers, in order; H or OH if unused. Where a SMILES comes first, the peptide text is derived from it. Bridges are numbered along the chain shown (N, C = ends). X1 = O=C(CCC[*:2])[*:1]
readout-kind: AUC(0-t) (ng·h/mL)
Please respond with the number in ng·h/mL and leave the unit unwritten.

Q: Return reported AUC(0-t); argument: CC[C@H](C)[C@@H]1NC(=O)[C@H](Cc2ccc(OC)cc2)NC(=O)CCCSC[C@@H](C(=O)N2CCC[C@H]2C(=O)N[C@@H](CC(C)C)C(=O)NCC(N)=O)NC(=O)[C@H](CC(N)=O)NC(=O)[C@H](CCC(N)=O)NC1=O [carbetocin] (Y(Me)IQNCPLG-NH2; linker N-5 via X1 (inferred))
Result: 0.302

----------
assay-protocol: clinical
protocol-conditions: human, in vivo, 150 ug
*1 amine or outer side, *2 acyl side, *3 side chain or, on linkers, in order; H or OH if unused. Where a SMILES comes first, the peptide text is derived from it. Bridges are numbered along the chain shown (N, C = ends). X1 = O=C(CCC[*:2])[*:1]
readout-kind: half-life (min)
Please respond with the number in min and leave the unit unwritten.

Q: Return reported half-life; argument: CC[C@H](C)[C@@H]1NC(=O)[C@H](Cc2ccc(OC)cc2)NC(=O)CCCSC[C@@H](C(=O)N2CCC[C@H]2C(=O)N[C@@H](CC(C)C)C(=O)NCC(N)=O)NC(=O)[C@H](CC(N)=O)NC(=O)[C@H](CCC(N)=O)NC1=O [carbetocin] (Y(Me)IQNCPLG-NH2; linker N-5 via X1 (inferred))
Result: 33

----------
assay-protocol: clinical
protocol-conditions: human, in vivo, inhaled or intranasal, 150 ug
*1 amine or outer side, *2 acyl side, *3 side chain or, on linkers, in order; H or OH if unused. Where a SMILES comes first, the peptide text is derived from it. Bridges are numbered along the chain shown (N, C = ends). X1 = O=C(CCC[*:2])[*:1]
readout-kind: Cmax (ng/mL)
Please respond with the number in ng/mL and leave the unit unwritten.

Q: Return reported Cmax; argument: CC[C@H](C)[C@@H]1NC(=O)[C@H](Cc2ccc(OC)cc2)NC(=O)CCCSC[C@@H](C(=O)N2CCC[C@H]2C(=O)N[C@@H](CC(C)C)C(=O)NCC(N)=O)NC(=O)[C@H](CC(N)=O)NC(=O)[C@H](CCC(N)=O)NC1=O [carbetocin] (Y(Me)IQNCPLG-NH2; linker N-5 via X1 (inferred))
Result: 0.222

----------
assay-protocol: clinical
protocol-conditions: human, in vivo, inhaled or intranasal, 400 ug
*1 amine or outer side, *2 acyl side, *3 side chain or, on linkers, in order; H or OH if unused. Where a SMILES comes first, the peptide text is derived from it. Bridges are numbered along the chain shown (N, C = ends). X1 = O=C(CCC[*:2])[*:1]
readout-kind: AUC(0-t) (ng·h/mL)
Please respond with the number in ng·h/mL and leave the unit unwritten.

Q: Return reported AUC(0-t); argument: CC[C@H](C)[C@@H]1NC(=O)[C@H](Cc2ccc(OC)cc2)NC(=O)CCCSC[C@@H](C(=O)N2CCC[C@H]2C(=O)N[C@@H](CC(C)C)C(=O)NCC(N)=O)NC(=O)[C@H](CC(N)=O)NC(=O)[C@H](CCC(N)=O)NC1=O [carbetocin] (Y(Me)IQNCPLG-NH2; linker N-5 via X1 (inferred))
Result: 0.542

----------
assay-protocol: clinical
protocol-conditions: human, in vivo, 150 ug
*1 amine or outer side, *2 acyl side, *3 side chain or, on linkers, in order; H or OH if unused. Where a SMILES comes first, the peptide text is derived from it. Bridges are numbered along the chain shown (N, C = ends). X1 = O=C(CCC[*:2])[*:1]
readout-kind: bioavailability
Reply with a number, then the unit it belongs to.

Q: Return reported bioavailability; argument: CC[C@H](C)[C@@H]1NC(=O)[C@H](Cc2ccc(OC)cc2)NC(=O)CCCSC[C@@H](C(=O)N2CCC[C@H]2C(=O)N[C@@H](CC(C)C)C(=O)NCC(N)=O)NC(=O)[C@H](CC(N)=O)NC(=O)[C@H](CCC(N)=O)NC1=O [carbetocin] (Y(Me)IQNCPLG-NH2; linker N-5 via X1 (inferred))
Result: 7%

----------
assay-protocol: clinical
protocol-conditions: human, in vivo, inhaled or intranasal, 400 ug
*1 amine or outer side, *2 acyl side, *3 side chain or, on linkers, in order; H or OH if unused. Where a SMILES comes first, the peptide text is derived from it. Bridges are numbered along the chain shown (N, C = ends). X1 = O=C(CCC[*:2])[*:1]
readout-kind: Tmax (min)
Please respond with the number in min and leave the unit unwritten.

Q: Return reported Tmax; argument: CC[C@H](C)[C@@H]1NC(=O)[C@H](Cc2ccc(OC)cc2)NC(=O)CCCSC[C@@H](C(=O)N2CCC[C@H]2C(=O)N[C@@H](CC(C)C)C(=O)NCC(N)=O)NC(=O)[C@H](CC(N)=O)NC(=O)[C@H](CCC(N)=O)NC1=O [carbetocin] (Y(Me)IQNCPLG-NH2; linker N-5 via X1 (inferred))
Result: 13

----------
assay-protocol: clinical
protocol-conditions: human, in vivo, inhaled or intranasal, 500 ug
*1 amine or outer side, *2 acyl side, *3 side chain or, on linkers, in order; H or OH if unused. Where a SMILES comes first, the peptide text is derived from it. Bridges are numbered along the chain shown (N, C = ends). X1 = O=C(CCC[*:2])[*:1]
readout-kind: AUC(0-t)

Q: Return reported AUC(0-t); argument: CC[C@H](C)[C@@H]1NC(=O)[C@H](Cc2ccc(OC)cc2)NC(=O)CCCSC[C@@H](C(=O)N2CCC[C@H]2C(=O)N[C@@H](CC(C)C)C(=O)NCC(N)=O)NC(=O)[C@H](CC(N)=O)NC(=O)[C@H](CCC(N)=O)NC1=O [carbetocin] (Y(Me)IQNCPLG-NH2; linker N-5 via X1 (inferred))
Result: 0.717 ng·h/mL

----------
assay-protocol: clinical
protocol-conditions: human, in vivo, inhaled or intranasal, 500 ug
*1 amine or outer side, *2 acyl side, *3 side chain or, on linkers, in order; H or OH if unused. Where a SMILES comes first, the peptide text is derived from it. Bridges are numbered along the chain shown (N, C = ends). X1 = O=C(CCC[*:2])[*:1]
readout-kind: Tmax (min)
Please respond with the number in min and leave the unit unwritten.

Q: Return reported Tmax; argument: CC[C@H](C)[C@@H]1NC(=O)[C@H](Cc2ccc(OC)cc2)NC(=O)CCCSC[C@@H](C(=O)N2CCC[C@H]2C(=O)N[C@@H](CC(C)C)C(=O)NCC(N)=O)NC(=O)[C@H](CC(N)=O)NC(=O)[C@H](CCC(N)=O)NC1=O [carbetocin] (Y(Me)IQNCPLG-NH2; linker N-5 via X1 (inferred))
Result: 18.6

----------
assay-protocol: clinical
protocol-conditions: human, in vivo, 500 ug
*1 amine or outer side, *2 acyl side, *3 side chain or, on linkers, in order; H or OH if unused. Where a SMILES comes first, the peptide text is derived from it. Bridges are numbered along the chain shown (N, C = ends). X1 = O=C(CCC[*:2])[*:1]
readout-kind: Cmax (ng/mL)
Please respond with the number in ng/mL and leave the unit unwritten.

Q: Return reported Cmax; argument: CC[C@H](C)[C@@H]1NC(=O)[C@H](Cc2ccc(OC)cc2)NC(=O)CCCSC[C@@H](C(=O)N2CCC[C@H]2C(=O)N[C@@H](CC(C)C)C(=O)NCC(N)=O)NC(=O)[C@H](CC(N)=O)NC(=O)[C@H](CCC(N)=O)NC1=O [carbetocin] (Y(Me)IQNCPLG-NH2; linker N-5 via X1 (inferred))
Result: 0.74

----------
assay-protocol: clinical
protocol-conditions: human, in vivo, im, Bioavailability
*1 amine or outer side, *2 acyl side, *3 side chain or, on linkers, in order; H or OH if unused. Where a SMILES comes first, the peptide text is derived from it. Bridges are numbered along the chain shown (N, C = ends). X1 = O=C(CCC[*:2])[*:1]
readout-kind: bioavailability (%)
Please respond with the number in % and leave the unit unwritten.

Q: Return reported bioavailability; argument: CC[C@H](C)[C@@H]1NC(=O)[C@H](Cc2ccc(OC)cc2)NC(=O)CCCSC[C@@H](C(=O)N2CCC[C@H]2C(=O)N[C@@H](CC(C)C)C(=O)NCC(N)=O)NC(=O)[C@H](CC(N)=O)NC(=O)[C@H](CCC(N)=O)NC1=O [carbetocin] (Y(Me)IQNCPLG-NH2; linker N-5 via X1 (inferred))
Result: 6

----------
assay-protocol: clinical
protocol-conditions: human, in vivo, inhaled or intranasal, 250 ug
*1 amine or outer side, *2 acyl side, *3 side chain or, on linkers, in order; H or OH if unused. Where a SMILES comes first, the peptide text is derived from it. Bridges are numbered along the chain shown (N, C = ends). X1 = O=C(CCC[*:2])[*:1]
readout-kind: Cmax (ng/mL)
Please respond with the number in ng/mL and leave the unit unwritten.

Q: Return reported Cmax; argument: CC[C@H](C)[C@@H]1NC(=O)[C@H](Cc2ccc(OC)cc2)NC(=O)CCCSC[C@@H](C(=O)N2CCC[C@H]2C(=O)N[C@@H](CC(C)C)C(=O)NCC(N)=O)NC(=O)[C@H](CC(N)=O)NC(=O)[C@H](CCC(N)=O)NC1=O [carbetocin] (Y(Me)IQNCPLG-NH2; linker N-5 via X1 (inferred))
Result: 0.377
